Test system: Mus musculus
Protocol notes: Locomotor activity in CD1 mouse assessed as stimulation at 0.3 mg/kg, ip after 1 hr relative to control
Assay type: functional
Experimental parameters: route intraperitoneal
Items are presented alongside their recorded Activity.
Readout type: Activity

                                   compound  readout_type  value_measured
0  COC(=O)[C@H]1[C@@H](c2ccc(F)cc2)C[C@H]2CC[C@H]1N2C      Activity              5%
1  COC(=O)[C@@H]1C2CC[C@H](C[C@@H]1c1ccc(I)cc1)N2C      Activity            415%
2  COC(=O)[C@@H]1C2CCC(C[C@@H]1c1ccc(Br)cc1)N2C (stereo partly specified)      Activity            259%
3  COC(=O)[C@@H]1C2CC[C@H](C[C@@H]1c1ccccc1)N2C      Activity             44%
4  COC(=O)[C@@H]1C2CC[C@H](C[C@@H]1c1ccc(C)cc1)N2C      Activity             19%
5  COC(=O)C1C2CC[C@H](C[C@@H]1c1ccc(Cl)cc1)N2C (stereo partly specified)      Activity            462%

====

System: Mus musculus
Protocol notes: Locomotor activity in CD1 mouse assessed as stimulation at 100 mg/kg, ip after 4 hrs relative to control
Assay type: functional
Experimental parameters: route intraperitoneal
Items are presented alongside their recorded Activity.
Readout type: Activity (%)

>>> df
                                   molecule  readout_type  value_measured
0  COC(=O)[C@@H]1C2CCC(C[C@H]1c1ccc(F)cc1)N2C (stereo partly specified)      Activity              73
1  COC(=O)[C@@H]1C2CCC(C[C@H]1c1ccccc1)N2C (stereo partly specified)      Activity             390
2  COC(=O)[C@H]1[C@@H](OC(=O)c2ccccc2)C[C@@H]2CC[C@H]1N2C      Activity              91
3  COC(=O)[C@@H]1C2CCC(C[C@H]1c1ccc(Cl)cc1)N2C (stereo partly specified)      Activity             598
4  COC(=O)[C@@H]1C2CCC(C[C@H]1c1ccc(I)cc1)N2C (stereo partly specified)      Activity             124
5  COC(=O)[C@@H]1C2CCC(C[C@H]1c1ccc(C)cc1)N2C (stereo partly specified)      Activity              18

====

The following compounds have recorded IC50 on Sodium-dependent dopamine transporter (Homo sapiens, UniProt Q01959).
Sequence (Q01959 whole entry): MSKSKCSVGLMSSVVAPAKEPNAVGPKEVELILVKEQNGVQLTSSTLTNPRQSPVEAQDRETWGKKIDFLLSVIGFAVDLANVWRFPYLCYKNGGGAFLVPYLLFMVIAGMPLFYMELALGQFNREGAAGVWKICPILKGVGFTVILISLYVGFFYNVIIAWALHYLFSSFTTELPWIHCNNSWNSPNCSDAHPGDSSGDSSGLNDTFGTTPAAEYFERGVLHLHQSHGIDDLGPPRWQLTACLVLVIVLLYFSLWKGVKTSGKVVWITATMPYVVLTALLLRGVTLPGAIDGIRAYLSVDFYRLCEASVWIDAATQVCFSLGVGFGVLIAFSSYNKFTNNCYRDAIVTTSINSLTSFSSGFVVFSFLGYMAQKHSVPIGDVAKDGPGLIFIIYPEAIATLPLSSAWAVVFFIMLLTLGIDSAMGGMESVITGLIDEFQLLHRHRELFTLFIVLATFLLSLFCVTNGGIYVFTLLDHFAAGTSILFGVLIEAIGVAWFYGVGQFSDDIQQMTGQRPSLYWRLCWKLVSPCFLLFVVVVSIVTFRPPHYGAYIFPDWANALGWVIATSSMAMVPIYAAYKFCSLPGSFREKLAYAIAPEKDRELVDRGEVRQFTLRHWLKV
Readout type: IC50 (nM)

>>> print(df.to_string())
                                   compound  readout_type  value_measured
0  COC(=O)[C@@H]1C2CC[C@H](C[C@@H]1c1ccc(I)cc1)N2C          IC50             1.3
1  COC(=O)[C@H]1C2CCC(C[C@@H]1c1ccc(C)cc1)N2C (some centres undefined)          IC50             207
2  COC(=O)[C@@H]1C2CCC(C[C@H]1c1ccccc1)N2C (some centres undefined)          IC50             101
3  COC(=O)[C@H]1[C@H]2CCC(C[C@H]1c1ccc(C)cc1)N2C          IC50            23.4

The values you see were collected from ChEMBL document CHEMBL1149262.
